Test system: IMC-1 (IL-2 20 ng/mL)
Assay: percent inhibition of viability; higher = more inhibition;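 also: normalised to DMSO-only wells as negative and benzethonium chloride as positive control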
Conditions: 72 h; 1000 nM
quantity-measured: percent inhibition of viability (%)
Hi! Could you send only the number? It should be in %, unit omitted.

[in] Value wanted: percent inhibition of viability (IMC-1 (IL-2 20 ng/mL)) of entry Cn1c(Nc2ccc(C(F)(F)F)cc2)nc2cc(Oc3ccnc(-c4ncc(C(F)(F)F)[nH]4)c3)ccc21 [RAF265] (max concentration tested 1000 nM)
[out] 12

[in] Value wanted: percent inhibition of viability (IMC-1 (IL-2 20 ng/mL)) of entry Cc1ccc(C(=O)Nc2ccc(CN3CCN(C)CC3)c(C(F)(F)F)c2)cc1C#Cc1cnc2cccnn12 [Ponatinib] (max concentration tested 1000 nM)
[out] -20.2

[in] Value wanted: percent inhibition of viability (IMC-1 (IL-2 20 ng/mL)) of entry Oc1nc(-c2ccc(C(F)(F)F)cc2)nc2c1CSCC2 [XAV-939] (max concentration tested 10000 nM)
[out] 9.99

[in] Value wanted: percent inhibition of viability (IMC-1 (IL-2 20 ng/mL)) of entry Cc1cc(Nc2nc(N[C@@H](C)c3ncc(F)cn3)ncc2Cl)[nH]n1 [AZD1480] (max concentration tested 1000 nM)
[out] 73.8

[in] Value wanted: percent inhibition of viability (IMC-1 (IL-2 20 ng/mL)) of entry O=C(CCCCCCNC(=O)c1cnc(N(c2ccccc2)c2ccccc2)nc1)NO [Rocilinostat] (max concentration tested 10000 nM)
[out] 8.19

[in] Value wanted: percent inhibition of viability (IMC-1 (IL-2 20 ng/mL)) of entry C=C(c1ccc(C(=O)O)cc1)c1cc2c(cc1C)C(C)(C)CCC2(C)C [Bexarotene] (max concentration tested 10000 nM)
[out] -7.39

* * *

System: normal primary NK cells, pool 2 (3 donors) (IL-2 2.5 ng/mL)
Test: percent inhibition of viability; higher = more inhibition
Details: 72 h; 10000 nM
quantity-measured: percent inhibition of viability (%)
Hi! Could you send only the number? It should be in %, unit omitted.

compound	percent inhibition of viability, %
CN1CCN(c2nc(C3=C(c4c[nH]c5ccccc45)C(=O)NC3=O)c3ccccc3n2)CC1 [Sotrastaurin] (max concentration tested 10000 nM)	41.4
CCC(C)(C)C(=O)O[C@H]1C[C@@H](C)C=C2C=C[C@H](C)[C@H](CC[C@@H]3C[C@@H](O)CC(=O)O3)[C@H]21 [Simvastatin] (max concentration tested 10000 nM)	19.6
O=C(O)c1ccc(-c2c[nH]c3ncc(-c4ccccc4)cc23)cc1C1CCCC1 (max concentration tested 10000 nM)	46
CC1(COc2ccc3c(c2)ncn3-c2ccc3cccc(N4CCC(N)CC4)c3n2)COC1 [Crenolanib] (max concentration tested 10000 nM)	99.4

[in] Value wanted: percent inhibition of viability (normal primary NK cells, pool 2 (3 donors) (IL-2 2.5 ng/mL)) of entry CCCc1cc(C)[nH]c(=O)c1CNC(=O)c1cc(-c2ccnc(N3CCN(C)CC3)c2)cc2c1cnn2C(C)C [GSK343] (max concentration tested 10000 nM)
[out] -0.1

[in] Value wanted: percent inhibition of viability (normal primary NK cells, pool 2 (3 donors) (IL-2 2.5 ng/mL)) of entry CCC1(c2ccc(N)cc2)CCC(=O)NC1=O (stereo not given) [Aminoglutethimide] (max concentration tested 10000 nM)
[out] 8.45

[in] Value wanted: percent inhibition of viability (normal primary NK cells, pool 2 (3 donors) (IL-2 2.5 ng/mL)) of entry NC(=S)N/N=C/c1ncccc1N [Triapine] (max concentration tested 10000 nM)
[out] 40

[in] Value wanted: percent inhibition of viability (normal primary NK cells, pool 2 (3 donors) (IL-2 2.5 ng/mL)) of entry CC(C)c1c(C(=O)Nc2ccccc2)c(-c2ccccc2)c(-c2ccc(F)cc2)n1CC[C@@H](O)C[C@@H](O)CC(=O)O [Atorvastatin] (max concentration tested 10000 nM)
[out] 29.2

[in] Value wanted: percent inhibition of viability (normal primary NK cells, pool 2 (3 donors) (IL-2 2.5 ng/mL)) of entry O=C(CCCCCCC(=O)Nc1ccc([C@H]2O[C@@H](CSc3nc(-c4ccccc4)c(-c4ccccc4)o3)C[C@@H](c3ccc(CO)cc3)O2)cc1)NO [Tubacin] (max concentration tested 10000 nM)
[out] 24

[in] Value wanted: percent inhibition of viability (normal primary NK cells, pool 2 (3 donors) (IL-2 2.5 ng/mL)) of entry CO[C@H](C(=O)[C@@H](O)[C@@H](C)O)[C@@H]1Cc2cc3cc(O[C@H]4C[C@@H](O[C@@H]5C[C@@H](O)[C@H](O)[C@@H](C)O5)[C@H](O)[C@@H](C)O4)c(C)c(O)c3c(O)c2C(=O)[C@H]1O[C@H]1C[C@@H](O[C@@H]2C[C@@H](O)[C@@H](O[C@@H]3C[C@](C)(O)[C@H](O)[C@@H](C)O3)[C@@H](C)O2)[C@H](O)[C@@H](C)O1 [Plicamycin] (max concentration tested 10000 nM)
[out] 91.9
